Data provenance is patent US8269000B2.

For each of the compounds below, state its inhibition at 10 µM.
Target: rat B1R (Rattus norvegicus)
Construct: expressed in transfected cells; host or cells: CHO K1 cells
Assay: FLIPR Ca2+ functional study on bradykinin receptor 1 (rB1R CHO K1 cells)
Format: cell-based
Settings: CHO-K1, % inhibition rat B1R at 10 μM, read-out: % inh. (rat B1R) 10 μM
Numeric answer only, unit % assumed.

### Prompt Query the reported inhibition at 10 µM for rat B1R (Rattus norvegicus); item: COc1cc(C)c(S(=O)(=O)N(CCN(C)c2nccc(N3CCC4(CCN(c5ccncc5)CC4)CC3)n2)C2CC2)c(C)c1 [Example I-005]
### Response 111

### Prompt Query the reported inhibition at 10 µM for rat B1R (Rattus norvegicus); item: COc1cc(C)c(S(=O)(=O)N(C)CCOc2nccc(N3CCN(c4ccncc4)CC3)n2)c(C)c1 [Example G-002]
### Response 109

### Prompt Query the reported inhibition at 10 µM for rat B1R (Rattus norvegicus); item: COc1cc(C)c(S(=O)(=O)N2CCC[C@H]2COc2nccc(N3CCC(c4ccccc4)(N4CCCC4)CC3)n2)c(C)c1 [G_CC-115]
### Response 81

### Prompt Query the reported inhibition at 10 µM for rat B1R (Rattus norvegicus); item: COc1cc(C)c(S(=O)(=O)N2CCCC(Oc3nccc(N4CCC5(CCN(c6ccncc6)CC5)CC4)n3)C2)c(C)c1 (centres unmarked) [G_CC-041]
### Response 101

### Prompt Query the reported inhibition at 10 µM for rat B1R (Rattus norvegicus); item: COc1cc(C)c(S(=O)(=O)N(C)CCOc2ccnc(N3CCC(OCCN4CCCC4)(c4cccc(F)c4)CC3)n2)c(C)c1 [H_CC-090]
### Response 83

### Prompt Query the reported inhibition at 10 µM for rat B1R (Rattus norvegicus); item: COc1cc(C)c(S(=O)(=O)N2CCCCC2COc2nccc(N3CC4CC3CN4Cc3ccncc3)n2)c(C)c1 (centres unmarked) [G_CC-056]
### Response 98

### Prompt Query the reported inhibition at 10 µM for rat B1R (Rattus norvegicus); item: COc1cc(C)c(S(=O)(=O)N(C)CCOc2ccnc(N3CCC4(CCN(c5ccncc5)CC4)CC3)n2)c(C)c1 [H_CC-029]
### Response 101

### Prompt Query the reported inhibition at 10 µM for rat B1R (Rattus norvegicus); item: COc1cc(C)c(S(=O)(=O)N2CCCC(Oc3nccc(N4CCC(c5ccccc5)(N5CCCC5)CC4)n3)C2)c(C)c1 (centres unmarked) [G_CC-114]
### Response 54

### Prompt Query the reported inhibition at 10 µM for rat B1R (Rattus norvegicus); item: COc1cc(C)c(S(=O)(=O)N2CC(Oc3ccnc(N(C)CCN4CCC(c5ccccc5)(N(C)C)CC4)n3)C2)c(C)c1 [H_CC-069]
### Response 52

### Prompt Query the reported inhibition at 10 µM for rat B1R (Rattus norvegicus); item: CCCCC1(N(C)C)CCN(c2ccnc(OC[C@@H]3CCCN3S(=O)(=O)c3c(C)cc(OC)cc3C)n2)CC1 [G_CC-087]
### Response 101

### Prompt Query the reported inhibition at 10 µM for rat B1R (Rattus norvegicus); item: COc1cc(C)c(S(=O)(=O)N(CCN(C)c2ccnc(N3CCC4(CCN(c5ccncc5)CC4)CC3)n2)C2CC2)c(C)c1 [Example I-004]
### Response 102

### Prompt Query the reported inhibition at 10 µM for rat B1R (Rattus norvegicus); item: CCCCC1(N(C)C)CCN(c2ccnc(OCC3CCCCN3S(=O)(=O)c3c(C)cc(OC)cc3C)n2)CC1 (centres unmarked) [G_CC-069]
### Response 102

### Prompt Query the reported inhibition at 10 µM for rat B1R (Rattus norvegicus); item: COc1cc(C)c(S(=O)(=O)N(C)CCOc2nccc(N3CCC(c4cccs4)(N(C)C)CC3)n2)c(C)c1 [G_CC-118]
### Response 86

### Prompt Query the reported inhibition at 10 µM for rat B1R (Rattus norvegicus); item: COc1cc(C)c(S(=O)(=O)N2CCCCC2COc2nccc(N3CCC(n4c(=O)[nH]c5cc(Cl)ccc54)CC3)n2)c(C)c1 (centres unmarked) [G_CC-024]
### Response 73

====

Target: rat B1R (Rattus norvegicus, UniProt P97583)
Construct: expressed in transfected cells; host or cells: CHO K1 cells
Sequence (P97583 1-337): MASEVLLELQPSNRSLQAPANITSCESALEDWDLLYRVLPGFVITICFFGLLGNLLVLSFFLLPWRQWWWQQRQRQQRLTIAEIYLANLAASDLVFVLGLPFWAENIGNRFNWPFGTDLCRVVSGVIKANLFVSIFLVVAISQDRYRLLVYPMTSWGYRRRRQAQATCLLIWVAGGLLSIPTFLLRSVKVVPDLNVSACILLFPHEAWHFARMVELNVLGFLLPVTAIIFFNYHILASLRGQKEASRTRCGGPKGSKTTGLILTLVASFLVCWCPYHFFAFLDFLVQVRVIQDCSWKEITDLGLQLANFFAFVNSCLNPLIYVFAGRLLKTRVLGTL
Assay: FLIPR Ca2+ functional study on bradykinin receptor 1 (rB1R CHO K1 cells)
Format: cell-based
Settings: CHO-K1, % inhibition rat B1R at 10 μM, read-out: % inh. (rat B1R) 10 μM
Description: The agonistic or antagonistic activity of substances can be quantified on the bradykinin receptor 1 (B1R) of the species human and rat using ectopically expressing cell lines (CHO K1 cells) and with the aid of a Ca^2+-sensitive dye (Fluo-4) using a fluorescent imaging plate reader (FLIPR). […] The agonistic or antagonistic activity of substances can be determined on the bradykinin receptor 1 (B1R) of the species human and rat using the following assay. […]
outcomeMeasure: inhibition at 10 µM
The reply must contain the numeric value and, after it, the unit.

### Prompt Given the entry O=S(=O)(c1ccccc1C(F)(F)F)N(CCOc1nccc(N2CCC3(CCN(c4ccncc4)CC3)CC2)n1)C1CC1 , report its measured inhibition at 10 µM.
### Response 89%

### Prompt Given the entry COc1cc(C)c(S(=O)(=O)N(C)C(COc2ccnc(N3CCN(c4ccncc4)CC3)n2)c2ccccc2)c(C)c1 (stereo not shown) , report its measured inhibition at 10 µM.
### Response 71%

### Prompt Given the entry COc1cc(C)c(S(=O)(=O)N2CCC[C@H]2COc2ccnc(N(C)CCCN3CCC(c4ccccc4)(N(C)C)CC3)n2)c(C)c1 , report its measured inhibition at 10 µM.
### Response 89%

### Prompt Given the entry COc1cc(C)c(S(=O)(=O)N2CCCCC2COc2nccc(N3CCC(CCCN4CCCC4)(c4cccnc4)CC3)n2)c(C)c1 (stereo not shown) , report its measured inhibition at 10 µM.
### Response 103%

### Prompt Given the entry COc1cc(C)c(S(=O)(=O)N2CCCCC2COc2nccc(N3CCN(C)CC3)n2)c(C)c1 (stereo not shown) , report its measured inhibition at 10 µM.
### Response 63%

### Prompt Given the entry COc1cc(C)c(S(=O)(=O)N2CCC[C@H]2COc2ccnc(N3CCC(OCCN4CCCC4)(c4cccnc4)CC3)n2)c(C)c1 , report its measured inhibition at 10 µM.
### Response 51%

### Prompt Given the entry COc1cc(C)c(S(=O)(=O)N(C)C(COc2nccc(N3CCC(CCCN4CCCC4)(c4cccnc4)CC3)n2)c2ccccc2)c(C)c1 (stereo not shown) , report its measured inhibition at 10 µM.
### Response 102%

====

Target: rat B1R (Rattus norvegicus, UniProt P97583)
Construct: expressed in transfected cells; host or cells: CHO K1 cells
Test: FLIPR Ca2+ functional study on bradykinin receptor 1 (rB1R CHO K1 cells)
Type: cell-based
Settings: CHO-K1, % inhibition rat B1R at 10 μM, read-out: % inh. (rat B1R) 10 μM
Threshold rule: inhibition at 10 µM greater than or equal to 80% is Yes; below that, No.

### Prompt Is inhibition at 10 µM at least 80%? Consider COc1cc(C)c(S(=O)(=O)N2CCC[C@H]2COc2nccc(N3CCN(c4ncccn4)CC3)n2)c(C)c1 [G_CC-018]
### Response Yes

### Prompt Is inhibition at 10 µM at least 80%? Consider COc1cc(C)c(S(=O)(=O)N2CCCCC2COc2nccc(N3CCCC3Cc3ccccn3)n2)c(C)c1 (stereo not shown) [G_CC-081]
### Response Yes

### Prompt Is inhibition at 10 µM at least 80%? Consider COc1cc(C)c(S(=O)(=O)N2CCC[C@H]2COc2ccnc(N3CCC4(CCN(Cc5ccccc5)C4)C3)n2)c(C)c1 (stereo partly shown) [H_CC-023]
### Response No

### Prompt Is inhibition at 10 µM at least 80%? Consider COc1cc(C)c(S(=O)(=O)N2CCCCC2COc2nccc(N(C)CCCN3CCC(c4ccccc4)(N(C)C)CC3)n2)c(C)c1 (stereo not shown) [G_CC-101]
### Response Yes

### Prompt Is inhibition at 10 µM at least 80%? Consider COc1cc(C)c(S(=O)(=O)N2CCC[C@H]2COc2ccnc(N3CCC(O)(c4ccccn4)CC3)n2)c(C)c1 [H_CC-047]
### Response Yes

### Prompt Is inhibition at 10 µM at least 80%? Consider COc1cc(C)c(S(=O)(=O)N2CCC[C@H]2COc2nccc(N3CCC4(CC3)C(=O)NCC4c3cccc(C(F)(F)F)c3)n2)c(C)c1 (stereo partly shown) [G_CC-049]
### Response No

### Prompt Is inhibition at 10 µM at least 80%? Consider COc1cc(C)c(S(=O)(=O)N(C)C(COc2nccc(N3CC4CC3CN4Cc3ccc(F)cc3)n2)c2ccccc2)c(C)c1 (stereo not shown) [G_CC-065]
### Response No

### Prompt Is inhibition at 10 µM at least 80%? Consider O=S(=O)(c1cccc(C(F)(F)F)c1)N(CCCc1ccnc(N2CCC3(CCN(c4ccncc4)CC3)CC2)n1)C1CC1 [Example I-008]
### Response Yes

### Prompt Is inhibition at 10 µM at least 80%? Consider COc1cc(C)c(S(=O)(=O)N2CCC[C@H]2COc2nccc(N(C)CCN3CCC(c4ccccc4)(N(C)C)CC3)n2)c(C)c1 [G_CC-088]
### Response Yes

### Prompt Is inhibition at 10 µM at least 80%? Consider COc1cc(C)c(S(=O)(=O)N2CCCC(Oc3ccnc(N4CCC(CCN5CCCCC5)CC4)n3)C2)c(C)c1 (stereo not shown) [H_CC-041]
### Response No

### Prompt Is inhibition at 10 µM at least 80%? Consider COc1cc(C)c(S(=O)(=O)N(C)CCOc2nccc(N3CCC4(CC3)C(=O)N(C)CC4c3ccc(F)cc3)n2)c(C)c1 (stereo not shown) [G_CC-044]
### Response No

### Prompt Is inhibition at 10 µM at least 80%? Consider COc1cc(C)c(S(=O)(=O)N2c3ccccc3C[C@H]2COc2ccnc(N3CCN(C4CCN(C)CC4)CC3)n2)c(C)c1 [H_CC-027]
### Response Yes

### Prompt Is inhibition at 10 µM at least 80%? Consider COc1cc(C)c(S(=O)(=O)N2CCCCC2COc2ccnc(N3CCC(C)(N4CCOCC4)CC3)n2)c(C)c1 (stereo not shown) [H_CC-081]
### Response No

### Prompt Is inhibition at 10 µM at least 80%? Consider COc1cc(C)c(S(=O)(=O)N2c3ccccc3C[C@H]2COc2nccc(N(C)CCCN3CCC(c4ccccc4)(N(C)C)CC3)n2)c(C)c1 [G_CC-076]
### Response Yes

### Prompt Is inhibition at 10 µM at least 80%? Consider COc1cc(C)c(S(=O)(=O)N2CC(Oc3nccc(N4CCC(c5ccccc5)(N5CCCC5)CC4)n3)C2)c(C)c1 [G_CC-122]
### Response No

### Prompt Is inhibition at 10 µM at least 80%? Consider COc1cc(C)c(S(=O)(=O)N2CCC[C@H]2COc2nccc(N3CC4CC3CN4Cc3ccncc3)n2)c(C)c1 (stereo partly shown) [G_CC-058]
### Response Yes

### Prompt Is inhibition at 10 µM at least 80%? Consider COc1cc(C)c(S(=O)(=O)N2CCCCC2COc2ccnc(N3CCC(CCN4CCCC4)CC3)n2)c(C)c1 (stereo not shown) [H_CC-002]
### Response No

### Prompt Is inhibition at 10 µM at least 80%? Consider COc1cc(C)c(S(=O)(=O)N2CCCCC2COc2ccnc(N3CCC(OCCN4CCCC4)(c4cccnc4)CC3)n2)c(C)c1 (stereo not shown) [H_CC-035]
### Response Yes

### Prompt Is inhibition at 10 µM at least 80%? Consider COc1cc(C)c(S(=O)(=O)N2CCCCC2COc2nccc(N3CCC4(CCN(Cc5ccc(F)cc5)C4=O)CC3)n2)c(C)c1 (stereo not shown) [G_CC-039]
### Response Yes

### Prompt Is inhibition at 10 µM at least 80%? Consider COc1cc(C)c(S(=O)(=O)N2CCC[C@H]2COc2ccnc(N3CCCC3Cc3ccccn3)n2)c(C)c1 (stereo partly shown) [H_CC-088]
### Response No

### Prompt Is inhibition at 10 µM at least 80%? Consider COc1cc(C)c(S(=O)(=O)N(C)C(COc2nccc(N3CCC(O)(c4ccncc4)CC3)n2)c2ccccc2)c(C)c1 (stereo not shown) [G_CC-112]
### Response Yes

### Prompt Is inhibition at 10 µM at least 80%? Consider COc1cc(C)c(S(=O)(=O)N2CCCCC2COc2ccnc(N3CCC(O)(c4ccccn4)CC3)n2)c(C)c1 (stereo not shown) [H_CC-083]
### Response No

### Prompt Is inhibition at 10 µM at least 80%? Consider CCCCC1(N(C)C)CCN(CCN(C)c2nccc(OC[C@@H]3CCCN3S(=O)(=O)c3c(C)cc(OC)cc3C)n2)CC1 [H_CC-056]
### Response Yes

### Prompt Is inhibition at 10 µM at least 80%? Consider CCCCC1(N(C)C)CCN(CCN(C)c2ccnc(OCC3CCCCN3S(=O)(=O)c3c(C)cc(OC)cc3C)n2)CC1 (stereo not shown) [G_CC-074]
### Response Yes

### Prompt Is inhibition at 10 µM at least 80%? Consider COc1cc(C)c(S(=O)(=O)N(CCOc2nccc(N3CCC4(CC3)CCC(OCCN3CCCC3)(c3cccnc3)CC4)n2)C2CC2)c(C)c1 [Example G-023]
### Response Yes
